test system: CP191; experiment: qHTS profiling for inhibitors of Plasmodium falciparum proliferation (AID 504749); note: nearly all actives have a fitted effect of over 60% in size; conditions: P. falciparum in erythrocytes, SYBR Green DNA, 72 h; series mostly up to 28.7 µM
Results filed as inconclusive are left out. Calls of active or inactive are those of the source. Calls come from the whole dose curve; as a rule, active = well fitted inhibition curve with a large enough effect; inconclusive = small, poorly fitted or top-dose-only effect; inactive = flat fitted curve, though single readings scatter.
// one of yes (1) (active), no (0) (inactive), no free text

>>> classification("CC(C)(C)C(=O)OCOC(=O)[C@@H]1N2C(=O)[C@@H](N=CN3CCCCCC3)[C@H]2SC1(C)C")
"no (0)"
>>> classification("CCN(CC)Cc1cc(Nc2ccnc3cc(Cl)ccc23)ccc1O")
"yes (1)"
>>> classification("O=C(O)c1cc(=O)c2c3nc4ccccc4oc-3cc(=O)c2[nH]1")
"no (0)"
>>> classification("CCOc1ccc2c(c1)C(C)=CC(C)(C)N2")
"no (0)"
>>> classification("CCOC(=O)C1=CC2(CC)CCCN3CCc4c(n1c1ccccc41)C32 (stereo not drawn)")
"yes (1)"

Q: Lab log entry: NC(=O)c1ncn(C2OC(CO)C(O)C2O)n1 (stereo not drawn) — outcome as called in the assay?
A: no (0)

Q: Lab log entry: C#C[C@]1(O)CC[C@H]2[C@@H]3CCC4=CCCC[C@@H]4[C@H]3C(=C)C[C@@]21CC — outcome as called in the assay?
A: yes (1)

Q: Lab log entry: COc1cc(-c2ccc(-[n+]3nc(-c4ccccc4)nn3-c3ccc([N+](=O)[O-])cc3)c(OC)c2)ccc1-[n+]1nc(-c2ccccc2)nn1-c1ccc([N+](=O)[O-])cc1 — outcome as called in the assay?
A: yes (1)

Q: Lab log entry: Oc1cc(O)c2c(c1)OC(c1ccc(O)c(O)c1)C(O)C2 (stereo not drawn) — outcome as called in the assay?
A: no (0)

Q: Lab log entry: CCCCCCC(O)C/C=C/CCCCCCCC(=O)O (stereo not drawn) — outcome as called in the assay?
A: no (0)

Q: Lab log entry: Nc1ncnc2c1ncn2[C@@H]1O[C@H](COP(=O)(O)OP(=O)(O)OP(=O)(O)O)[C@@H](O)[C@H]1O — outcome as called in the assay?
A: no (0)

Origin of the recorded values: PubChem BioAssay (NCATS)
